The reported measurements were obtained from ChEMBL document CHEMBL4732204.

Test system 72 kDa type IV collagenase (Homo sapiens, UniProt P08253), Ki listed for each of the compounds.
measured.parameter: Ki (nM)

Field: example entries. Status: answers known.
>  <line.notation>
O=C(N[C@@H]1C[C@H](C(=O)NO)N(S(=O)(=O)c2ccc(Cl)c(Cl)c2)C1)c1cccs1

>  <Ki [nM]>
131

$$$$
>  <line.notation>
O=C(Nc1ccc(C(=O)Nc2ccc(S(=O)(=O)N3CCC[C@@H]3C(=O)NO)cc2)cc1)OCc1ccccc1

>  <Ki [nM]>
0.044

$$$$

A. COc1ccc(S(=O)(=O)N2C[C@H](NC(=O)C(C)(C)C)C[C@@H]2C(=O)NO)cc1
B. O=C(NO)[C@H]1C[C@H](NS(=O)(=O)c2ccc(-c3ccccc3)cc2)CN1S(=O)(=O)c1ccc(Cl)c(Cl)c1
**Query** For the pair A and B , which entry has the numerically smaller recorded Ki? Reply with the label of the item you choose.
**Result** A
